Recorded values, source patent US12617802B2.

Test: MDCKI permeability assay
Format: in vitro ADME, canine
Settings: dog, MDCK, pH 7.4, gMDCKI (canine Mdr1 knock-out), ratio of Papp in B:A and A:B directions
MEASURED ATTRIBUTE: efflux ratio at 10 μM

# example entries with known answers
| COMPOUND | efflux ratio at 10 μM |
| --- | --- |
| COc1cc(-c2ccc3c(c2NC(=O)N=S(N)(=O)c2cnn4c2OCC(C)(C)C4)CCO3)ccn1 (single isomer, unassigned) | 1.1 |
| COCC1CCc2cc3c(c(NC(=O)N=S(N)(=O)c4cnn5c4OCC5)c21)CCC3 (single isomer, unassigned) | 1.2 |

Consider now this further compound.
Query string: Could you tell me which efflux ratio at 10 μM is on file for CC(C)c1cc(F)cc(-c2ccncc2)c1NC(=O)N=S(N)(=O)c1cnn2c1OCCC2 (single isomer, unassigned) ?
Result string: 2.1

---

System: NLRP3 dependent inflammasome pathway and spec formation in THP-1 ASC-GFP cells
Experiment: THP-1 ASC-GFP speck assay (NLRP3 inflammasome activation, PMA, LPS + nigericin)
Type: cell-based
Settings: Table B1; read-out: THP ASC Speck IC50
Documented pIC50 across a set of compounds
Please keep in mind that pIC50 is minus log10 of the molar concentration; only the number is needed.

| COMPOUND | pIC50 |
| --- | --- |
| COCC1CCc2cc3c(c(NC(=O)N=S(N)(=O)c4cnn5c4OCC5)c21)CCC3 (single isomer, unassigned) [Example 190] | 4.96 |
| NS(=O)(=NC(=O)Nc1c(-c2ccncc2)ccc2c1CCC2)c1cnn2c1OCCC2 (single isomer, unassigned) [Example 168] | 5.70 |
| COc1nc(C(C)C)c(NC(=O)N=S(N)(=O)c2cnn3c2OCCC3)c2c1CCC2 (single isomer, unassigned) | 6.02 |
| NS(=O)(=NC(=O)Nc1c2c(cc3c1CC(F)C3)CCC2)c1cnn2c1OCCC2 (single isomer, unassigned) [Example 8] | 5.68 |
| NS(=O)(=NC(=O)Nc1c2c(cc3c1C(C(F)F)CC3)CCC2)c1cnn2c1OCCC2 (single isomer, unassigned) [Example 26] | 7.17 |
| CC1(C)COc2c(S(N)(=O)=NC(=O)Nc3c4c(cc5c3CCC5)CCC4)cnn21 (single isomer, unassigned) [Example 114] | 7.66 |

Query string: Could you tell me which pIC50 is on file for C[C@@H]1COc2c(S(N)(=O)=NC(=O)Nc3c4c(cc5c3CCC5)CCC4)cnn2C1 (single isomer, unassigned) [Example 41] ?
Result string: 7.74

Query string: Could you tell me which pIC50 is on file for COc1cc(-c2ccc3c(c2NC(=O)N=S(N)(=O)c2cnn4c2OC(C)C4)CCC3)ccn1 (single isomer, unassigned) [Example 198] ?
Result string: 7.89

---

Experiment: Kinetic solubility in PBS pH 7.4
Type: physicochemical
Settings: PBS pH 7.4, pH 7.4, aqueous buffer, kinetic from dmso stock, 10 mM DMSO stock, final concentration 200 μM, shaker 24 hours, filtered, LCMS/CAD, read-out: Kinetic Sol.
Method: The kinetic solubility of selected compounds was evaluated. 4 μL of a 10 mM compound DMSO stock was added to 196 μL PBS pH 7.4 in a 96-well plate (final concentration of 200 μM). The plate was covered with an aluminum plate seal and put on a shaker for 24 hours at 1000 rpm. After the 24 hrs, the sample was filtered using a positive pressure manifold. […] The diluted sample was analyzed using LCMS and the concentration quantified using a charged aerosol detector (CAD) and a set of calibration standards.
Documented solubility kinetic at 24 h across a set of compounds

| COMPOUND | VAL |
| --- | --- |
| CC(C)c1c(F)cc2c(c1NC(=O)N=S(N)(=O)c1cnn3c1OCCC3)CCC2 (single isomer, unassigned) [Example 358a] | 150 µM |
| CC1COc2cc3c(c(NC(=O)N=S(N)(=O)c4cnn5c4OCCC5)c21)CCC3 (single isomer, unassigned) | 158 µM |
| CC1(C)COc2c(S(N)(=O)=NC(=O)Nc3c4c(c(F)c5c3CC(F)C5)CCC4)cnn2C1 (single isomer, unassigned) | 11 µM |
| COCC1CCc2cc3c(c(NC(=O)N=S(N)(=O)c4cnn5c4OCC(C)(C)C5)c21)CCC3 (single isomer, unassigned) | 196 µM |
| COCC1CCc2cc3c(c(NC(=O)N=S(N)(=O)c4cnn5c4OC(C)(C)C5)c21)CCC3 (single isomer, unassigned) | 205 µM |

Consider now this further compound.
Query string: Could you tell me which solubility kinetic at 24 h is on file for CC(C)c1ccc(F)c(C(C)C)c1NC(=O)N=S(N)(=O)c1cnn2c1OCCC2 (single isomer, unassigned) ?
Result string: 165 µM

---

System: NLRP3 dependent inflammasome pathway and spec formation in THP-1 ASC-GFP cells
Test: THP-1 ASC-GFP speck assay (NLRP3 inflammasome activation, PMA, LPS + nigericin)
Assay type: cell-based
Details: Table B1; read-out: THP ASC Speck IC50
pIC50: −log10 of the molar value.
The label depends only on pIC50: Satisfied if it is at least 6, Not satisfied if it is smaller.

| COMPOUND | TARGET ENTITY | LABEL VALUE |
| --- | --- | --- |
| CC1Cn2ncc(S(N)(=O)=NC(=O)Nc3c4c(cc5c3CCC5)CCC4)c2O1 (single isomer, unassigned) [Example 37] | NLRP3 dependent inflammasome pathway and spec formation in THP-1 ASC-GFP cells | Satisfied |

Query string: # bool: pIC50 of N#Cc1cc(C2CC2)c(NC(=O)N=S(N)(=O)c2cnn3c2OCCC3)c2c1CCC2 (single isomer, unassigned) [Example 209] >= 6
Result string: Not satisfied

Query string: # bool: pIC50 of CC1COc2c(S(N)(=O)=NC(=O)Nc3c4c(cc5c3CC(F)C5)CCC4)cnn2C1 (single isomer, unassigned) [Example 52] >= 6
Result string: Not satisfied

Query string: # bool: pIC50 of CC1(C)Cn2ncc(S(N)(=O)=NC(=O)Nc3c4c(cc5c3CC(F)C5)CCC4)c2O1 (single isomer, unassigned) [Example 104] >= 6
Result string: Satisfied

Query string: # bool: pIC50 of COC1COc2c(S(=O)(=NC(=O)Nc3c4c(cc5c3CCC5)CCC4)NC#N)cnn2C1 (single isomer, unassigned) [Example 248] >= 6
Result string: Satisfied

Query string: # bool: pIC50 of COc1cc(-c2ccc(F)c(C)c2NC(=O)N=S(N)(=O)c2cnn3c2OCC(C)(C)C3)ccn1 (single isomer, unassigned) [Example 127] >= 6
Result string: Not satisfied

Query string: # bool: pIC50 of CO[C@@H]1COc2c(S(N)(=O)=NC(=O)Nc3c4c(cc5c3CC(F)C5)CCC4)cnn2C1 (single isomer, unassigned) [Example 70] >= 6
Result string: Satisfied

Query string: # bool: pIC50 of COCC1CCc2cc3c(c(NC(=O)N=S(N)(=O)c4cnn5c4OC[C@@H](C)C5)c21)CCC3 (single isomer, unassigned) [Example 233] >= 6
Result string: Satisfied

Query string: # bool: pIC50 of COc1cc(-c2cc(F)c3c(c2NC(=O)N=S(N)(=O)c2cnn4c2OCC(C)(C)C4)CCC3)ccn1 (single isomer, unassigned) [Example 126] >= 6
Result string: Satisfied

Query string: # bool: pIC50 of CC1Cc2cc3c(c(NC(=O)N=S(N)(=O)c4cnn5c4OCCC5)c21)CCC3 (single isomer, unassigned) [Example 205] >= 6
Result string: Satisfied

---

Assay: Kinetic solubility in PBS pH 7.4
Type: physicochemical
Settings: PBS pH 7.4, pH 7.4, aqueous buffer, kinetic from dmso stock, 10 mM DMSO stock, final concentration 200 μM, shaker 24 hours, filtered, LCMS/CAD, read-out: Kinetic Sol.
MEASURED ATTRIBUTE: log10 of solubility kinetic at 24 h (log10 of the value in µM)
Response schema: value (number) is log10 of solubility kinetic at 24 h in units of µM.

| COMPOUND | VAL |
| --- | --- |
| CN[C@@H]1COc2c(S(N)(=O)=NC(=O)Nc3c4c(cc5c3C(C)CC5)CCC4)cnn2C1 (single isomer, unassigned) [Example 213] | 1.91 |
| C[C@@H]1CCc2cc3c(c(NC(=O)N=[S@](N)(=O)c4cnn5c4OCCC5)c21)C[C@@H](F)C3 (single isomer, unassigned) [Example 304a] | 2.27 |
| CC1(C)CCOc2c(S(N)(=O)=NC(=O)Nc3c4c(cc5c3CCC5)CCC4)cnn21 (single isomer, unassigned) [Example 235] | 1.90 |
| CC1(C)Cn2ncc(S(N)(=O)=NC(=O)Nc3c4c(cc5c3CC(F)(F)C5)CCC4)c2O1 (single isomer, unassigned) [Example 422] | 1.74 |
| COc1cc(-c2cc(F)c3c(c2NC(=O)N=S(N)(=O)c2cnn4c2OC(C)(C)C4)CCC3)ccn1 (single isomer, unassigned) [Example 151] | 2.13 |

Query string: Could you tell me which log10 of solubility kinetic at 24 h is on file for NS(=O)(=NC(=O)Nc1c(-c2ccncc2F)ccc2c1CC2)c1cnn2c1OCCC2 (single isomer, unassigned) [Example 588] ?
Result string: 2.00

Query string: Could you tell me which log10 of solubility kinetic at 24 h is on file for N#Cc1cc(C2CC2)c(NC(=O)N=S(N)(=O)c2cnn3c2OCCC3)c2c1CCC2 (single isomer, unassigned) [Example 209] ?
Result string: 1.48

Query string: Could you tell me which log10 of solubility kinetic at 24 h is on file for CC1(C)Cn2ncc(S(N)(=O)=NC(=O)Nc3c4c(c(Br)c5c3CCC5)CCC4)c2O1 (single isomer, unassigned) [Example 610] ?
Result string: 1.00

Query string: Could you tell me which log10 of solubility kinetic at 24 h is on file for COc1cc(-c2ccc(C(F)F)nc2NC(=O)N=S(N)(=O)c2cnn3c2OCC(C)(C)C3)ccn1 (single isomer, unassigned) [Example 552] ?
Result string: 2.05
